Molecular target: Orexin/Hypocretin receptor type 1 (Homo sapiens) (UniProt O43613)
Sequence (whole entry): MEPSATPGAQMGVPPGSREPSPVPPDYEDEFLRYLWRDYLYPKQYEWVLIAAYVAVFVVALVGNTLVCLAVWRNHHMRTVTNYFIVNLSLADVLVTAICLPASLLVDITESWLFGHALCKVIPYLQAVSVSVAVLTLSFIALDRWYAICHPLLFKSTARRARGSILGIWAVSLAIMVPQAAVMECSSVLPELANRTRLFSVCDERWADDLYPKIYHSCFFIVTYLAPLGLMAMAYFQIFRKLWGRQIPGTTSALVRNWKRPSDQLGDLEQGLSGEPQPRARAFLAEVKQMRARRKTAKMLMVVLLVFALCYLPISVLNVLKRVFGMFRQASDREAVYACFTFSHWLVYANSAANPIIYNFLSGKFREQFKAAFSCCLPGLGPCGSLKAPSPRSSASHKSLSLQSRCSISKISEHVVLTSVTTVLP
Assay: Antagonist activity at OX1 receptor (unknown origin) expressed in RD-HGA16 cells assessed as inhibition orexin A-induced calcium mobilization by fluorescence assay
Type: functional, cell-based
OBSERVATION_TYPE: Ke(app) (nM)

COMPOUND	COMPARISON_SIGN	READOUT_VALUE
CCCCOc1cc2c(cc1OC)CCN(CC(=O)NCc1ccccc1)C2Cc1ccc(OC)c(OC)c1 (centres undefined)	=	54.7
CCCC(=O)Oc1cc2c(cc1OC)CCN(CC(=O)NCc1ccccc1)C2Cc1ccc(OC)c(OC)c1 (centres undefined)	=	78.5
COc1ccc(CC2c3cc(OC)c(OC)cc3CCN2CC(=O)NCc2ccc(NC(C)=O)cc2)cc1OC (centres undefined)	>	10000
COc1ccc(CC2c3cc(OC)c(OC)cc3CCN2CC(=O)NCCCN(C)C)cc1OC (centres undefined)	>	10000
CCCOc1cc2c(cc1OC)CCN(CC(=O)NCc1cccnc1)C2Cc1ccc(OC)c(OC)c1 (centres undefined)	=	41.9
COc1ccc(CC2c3cc(OCc4ccccn4)c(OC)cc3CCN2CC(=O)NCc2ccccc2)cc1OC (centres undefined)	=	101
COc1ccc(CC2c3cc(OC)c(OC)cc3CCN2CC(=O)N(C)Cc2ccccc2)cc1OC (centres undefined)	=	2090
COc1ccc(CC2c3cc(OC)c(OC)cc3CCN2CC(=O)NCc2ccc(F)cc2)cc1OC (centres undefined)	=	279
COc1ccc(CC2c3cc(OCC(F)(F)F)c(OC)cc3CCN2CC(=O)NCc2ccccc2)cc1OC (centres undefined)	=	9.4

====

Species: Homo sapiens
Test: Selectivity ratio of Ke for OX2 receptor (unknown origin) to Ke for OX1 receptor (unknown origin)
Listing of entries alongside the reported Ratio.

COMPOUND	Ratio
COc1ccc(CC2c3cc(OS(=O)(=O)c4ccccc4)c(OC)cc3CCN2CC(=O)NCc2ccccc2)cc1OC (centres undefined)	95.1
CCCCCCNC(=O)Nc1ccc(CNC(=O)CN2CCc3cc(OC)c(OC)cc3C2Cc2ccc(OC)c(OC)c2)cc1 (centres undefined)	0.7
CCCCOc1cc2c(cc1OC)CCN(CC(=O)NCc1ccccc1)C2Cc1ccc(OC)c(OC)c1 (centres undefined)	34.6
COc1ccc(CC2c3cc(OCCC(C)C)c(OC)cc3CCN2CC(=O)NCc2ccccc2)cc1OC (centres undefined)	12
COc1ccc(CC2c3cc(OC)c(OC)cc3CCN2CC(=O)N2CCc3ccccc3C2)cc1OC (centres undefined)	3
COc1ccc(CC2c3cc(OC)c(OC)cc3CCN2CC(=O)NC2CCCc3ccccc32)cc1OC (centres undefined)	15.9
COc1ccc(CC2c3cc(OC)c(OC)cc3CCN2CC(=O)NCc2ccc(Cl)cc2)cc1OC (centres undefined)	14
CCCCCCCNC(=O)CN1CCc2cc(OC)c(OC)cc2C1Cc1ccc(OC)c(OC)c1 (centres undefined)	3.9
COc1ccc(CC2c3cc(OC)c(OC)cc3CCN2CC(=O)N[C@@H](C)c2ccccc2)cc1OC (single isomer, unassigned; diastereomer 2)	> 125

Values compiled from ChEMBL document CHEMBL2417373.
